Every entry's value here was drawn from paper PMC10287695.

Molecular target: Human TrxR1 (Homo sapiens, UniProt Q16881)
Construct: made in house
Sequence (Q16881 151-649): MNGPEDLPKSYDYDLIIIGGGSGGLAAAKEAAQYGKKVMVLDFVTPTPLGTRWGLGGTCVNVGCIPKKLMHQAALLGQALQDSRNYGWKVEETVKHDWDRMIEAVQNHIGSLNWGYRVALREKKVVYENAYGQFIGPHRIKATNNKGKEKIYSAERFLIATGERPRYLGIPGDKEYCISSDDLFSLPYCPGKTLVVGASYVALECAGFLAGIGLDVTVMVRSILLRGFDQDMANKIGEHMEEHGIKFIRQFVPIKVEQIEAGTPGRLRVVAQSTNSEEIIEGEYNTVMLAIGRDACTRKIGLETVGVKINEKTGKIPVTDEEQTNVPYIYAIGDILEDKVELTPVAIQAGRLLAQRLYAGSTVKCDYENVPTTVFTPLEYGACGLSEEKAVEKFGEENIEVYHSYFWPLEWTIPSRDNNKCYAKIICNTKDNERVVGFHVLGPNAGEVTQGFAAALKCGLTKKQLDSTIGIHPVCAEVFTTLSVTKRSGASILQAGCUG
Experiment: Human TrxR1 enzyme inhibition (DTNB reduction)
Assay type: biochemical
Details: hsTrxR, 15 minutes pre-incubation, compound 30 µM
Protocol: Recombinant TGR, human TrxR1, B. malayi (Bm)TrxR and human GR proteins were expressed and purified as described[20],[69],[79]. […] The reaction was started with addition of an equal volume of DTNB (6 mM) and NADPH (100 µM) and the increase in A412 during the first 3 min was recorded. […] Activity was initiated with the addition of 1 mM GSSG and 100 μM NADPH and initial rates of NADPH oxidation were monitored at 340 nm. […] The IC50 was calculated in GraphPad Prism.
# inhibition at 30 µM values compiled below
REPORTED PROPERTY: inhibition at 30 µM (%)

Cc1oc(C2CCCCC2)nc1C(=O)N[C@@H]1C[C@@H]2C[C@H]([C@H]1C)C2(C)C	63.3
CC1C(NCc2cn(C3OCC(O)C(O)C3O)c3ccccc23)CC2CC1C2(C)C (stereo not drawn)	8.68
Cc1oc(C2CCCCC2)nc1CN[C@@H]1C[C@@H]2C[C@H]([C@H]1C)C2(C)C	26.9
C#CCN(Cc1nc(-c2ccccc2)oc1C)[C@@H]1C[C@@H]2C[C@H]([C@H]1C)C2(C)C	1.95
CCc1ccccc1-c1nc(CN[C@@H]2C[C@@H]3C[C@H]([C@H]2C)C3(C)C)c(C)o1	4.72
Cc1oc(-c2ccc3c(c2)OCO3)nc1CN[C@@H]1C[C@@H]2C[C@H]([C@H]1C)C2(C)C	11.4
